Source listed as patent US20240294541A1.

System: A2780Cis (cisplatin-resistant human ovarian cancer)
protocol-details: In vitro cytotoxicity, SRB assay, A2780Cis
Assay type: cell-based
quantity-kind: SI A2780Cis

CC[C@@H](C(=O)[C@@H](C)[C@@H](O)[C@H](C)[C@@H]1O[C@@H]([C@@H](CC)C(=O)O)CC[C@@H]1C)[C@H]1O[C@]2(C=C[C@@H](NC(=O)NC(C)(C)C)[C@]3(CC[C@@](C)([C@H]4CC[C@](O)(CC)[C@H](C)O4)O3)O2)[C@H](C)C[C@@H]1C	≈7220
CCC(CC)NC(=S)N[C@@H]1C=C[C@]2(O[C@H]([C@@H](CC)C(=O)[C@@H](C)[C@@H](O)[C@H](C)[C@@H]3O[C@@H]([C@@H](CC)C(=O)O)CC[C@@H]3C)[C@@H](C)C[C@H]2C)O[C@@]12CC[C@@](C)([C@H]1CC[C@](O)(CC)[C@H](C)O1)O2	≈8000

* * *

Test system: MV-4-11 (human biphenotypic leukaemia)
protocol-details: In vitro cytotoxicity, MTT assay, MV-4-11
Format: cell-based
// returns False unless SI MV4-11 is strictly below 20, in which case True

As a guide, the following entries are already answered.
CC[C@@H](C(=O)[C@@H](C)[C@@H](O)[C@H](C)[C@@H]1O[C@@H]([C@@H](CC)C(=O)O)CC[C@@H]1C)[C@H]1O[C@]2(C=C[C@@H](NC(=O)C3CCCC3)[C@]3(CC[C@@](C)([C@H]4CC[C@](O)(CC)[C@H](C)O4)O3)O2)[C@H](C)C[C@@H]1C [FLC-00455-1•Na]	False
CC[C@@H](C(=O)[C@@H](C)[C@@H](O)[C@H](C)[C@@H]1O[C@@H]([C@@H](CC)C(=O)O)CC[C@@H]1C)[C@H]1O[C@]2(C=C[C@@H](NC(=O)N3CCOCC3)[C@]3(CC[C@@](C)([C@H]4CC[C@](O)(CC)[C@H](C)O4)O3)O2)[C@H](C)C[C@@H]1C [FLC-00540-1•Na]	True
CC[C@@H](C(=O)[C@@H](C)[C@@H](O)[C@H](C)[C@@H]1O[C@@H]([C@@H](CC)C(=O)O)CC[C@@H]1C)[C@H]1O[C@]2(C=C[C@@H](NC(=O)C(Cl)Cl)[C@]3(CC[C@@](C)([C@H]4CC[C@](O)(CC)[C@H](C)O4)O3)O2)[C@H](C)C[C@@H]1C [FLC-00493-1•Na]	True

API: the following record is the query input.
Quick check: does CC[C@@H](C(=O)[C@@H](C)[C@@H](O)[C@H](C)[C@@H]1O[C@@H]([C@@H](CC)C(=O)O)CC[C@@H]1C)[C@H]1O[C@]2(C=C[C@@H](NC(=O)OCCOCCOCCOCCOC)[C@]3(CC[C@@](C)([C@H]4CC[C@](O)(CC)[C@H](C)O4)O3)O2)[C@H](C)C[C@@H]1C [FLC-00481-1•Na] have SI MV4-11 under 20?
True

* * *

Tested on: NCI-H23 (human lung cancer)
protocol-details: In vitro cytotoxicity, SRB assay, NCI-H23
Type: cell-based
particulars: Homo sapiens, NCI-H23; 72 h with compound, SRB; n/a = non-active compound; read-out: NCI-H23 IC50
In this section, each of the compounds is paired with its reported IC50.
Quick reminder: number only, in nM, skip the unit.

Reported IC50 ( `CC[C@@H](C(=O)[C@@H](C)[C@@H](O)[C@H](C)[C@@H]1O[C@@H]([C@@H](CC)C(=O)O)CC[C@@H]1C)[C@H]1O[C@]2(C=C[C@@H](NC(=O)Nc3ccc(F)cc3F)[C@]3(CC[C@@](C)([C@H]4CC[C@](O)(CC)[C@H](C)O4)O3)O2)[C@H](C)C[C@@H]1C` ) = 148

Reported IC50 ( `CC[C@@H](C(=O)[C@@H](C)[C@@H](O)[C@H](C)[C@@H]1O[C@@H]([C@@H](CC)C(=O)O)CC[C@@H]1C)[C@H]1O[C@]2(C=C[C@@H](NC(=O)NC3CCCC3)[C@]3(CC[C@@](C)([C@H]4CC[C@](O)(CC)[C@H](C)O4)O3)O2)[C@H](C)C[C@@H]1C` ) = 112

Reported IC50 ( `CC[C@@H](C(=O)[C@@H](C)[C@@H](O)[C@H](C)[C@@H]1O[C@@H]([C@@H](CC)C(=O)O)CC[C@@H]1C)[C@H]1O[C@]2(C=C[C@@H](NC(=O)NCCc3ccccc3)[C@]3(CC[C@@](C)([C@H]4CC[C@](O)(CC)[C@H](C)O4)O3)O2)[C@H](C)C[C@@H]1C` ) = 62.4
